Give measured % increase in Lag phase for each item. Keep answers brief.
- TARGET: α-synuclein (UniProt P37840 1-140); also: test concentration or dose not given here
- TEST: cell-based or functional assay
Non-standard residues stand in square brackets, D forms with d.
API: value field is a number in %; no unit string.

input: Record request: % increase in Lag phase value, item H-[dQ][dY][dT][dV][dL][dI]-NH2 (SMILES CC[C@@H](C)[C@@H](NC(=O)[C@@H](CC(C)C)NC(=O)[C@H](NC(=O)[C@H](NC(=O)[C@@H](Cc1ccc(O)cc1)NC(=O)[C@H](N)CCC(N)=O)[C@H](C)O)C(C)C)C(N)=O) [ZP-0221]
output: -22.4

input: Record request: % increase in Lag phase value, item Ac-[dH][dH][dV][dI][dV][dV]-NH2 (SMILES CC[C@@H](C)[C@@H](NC(=O)[C@H](NC(=O)[C@@H](Cc1c[nH]cn1)NC(=O)[C@@H](Cc1c[nH]cn1)NC(C)=O)C(C)C)C(=O)N[C@@H](C(=O)N[C@@H](C(N)=O)C(C)C)C(C)C) [ZP-0169]
output: 26.1
